Numbers sourced from patent US9902703B2.

This listing pairs molecules with measured pEC50.
Target: human somatostatin receptor subtype 2 (Homo sapiens, UniProt P30874)
Construct: expressed in transfected cells; host or cells: CHO (Chinese hamster ovary) cells, G-418 selected
Sequence (P30874 whole entry): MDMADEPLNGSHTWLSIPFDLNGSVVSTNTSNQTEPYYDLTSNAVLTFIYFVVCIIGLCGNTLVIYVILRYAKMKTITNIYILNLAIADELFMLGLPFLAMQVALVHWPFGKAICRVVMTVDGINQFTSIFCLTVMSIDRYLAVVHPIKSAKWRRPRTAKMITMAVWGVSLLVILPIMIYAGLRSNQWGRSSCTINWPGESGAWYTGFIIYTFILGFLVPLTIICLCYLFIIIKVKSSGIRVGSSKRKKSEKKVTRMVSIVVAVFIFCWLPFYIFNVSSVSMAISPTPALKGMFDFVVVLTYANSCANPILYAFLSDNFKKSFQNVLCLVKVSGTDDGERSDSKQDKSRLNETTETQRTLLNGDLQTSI
Experiment: cAMP assay (functional assay for SSTR2 agonists)
Assay type: cell-based
Settings: CHO cells expressing human SSTR2; intracellular cAMP with forskolin, HTRF; read-out: SSTR2a EC50
pEC50: −log10 of the molar value.
measurementKind: pEC50

molecule	measurementKind	readoutValue
Cc1cc(Cl)cc(N2C=Nc3cc(C)c(-c4ccc(F)cc4C)cc3C2C(=O)N(C)C[C@@H]2CCCN2)c1 (stereo partly drawn)	pEC50	> 7.00
Cc1cc(C)cc(N2C=Nc3ccc(-c4cccc(O)c4)cc3C2C(=O)N(C)C[C@H](C)N)c1 (stereo partly drawn)	pEC50	6.00 to 7.00
Cc1cc(Cl)cc(N2C=Nc3cc(C)c(-c4cc(O)ccc4Cl)cc3C2C(=O)N(C)C[C@@H]2CCCCN2)c1 (stereo partly drawn)	pEC50	> 7.00
CCOC(=O)Cc1cccc(-c2cc3c(cc2C)N=CN(c2cc(C)cc(Cl)c2)C3C(=O)N(C)C[C@@H]2CCCN2)c1 (stereo partly drawn)	pEC50	6.00 to 7.00
Cc1cc(Cl)cc(N2C=Nc3cc(C)c(-c4cccc(C#N)c4F)cc3C2C(=O)N(C)C[C@@H]2CCCN2)c1 (stereo partly drawn)	pEC50	> 7.00
Cc1cc(Cl)cc(N2C=Nc3cc(C)c(-c4cccc(-c5nnn[nH]5)c4)cc3C2C(=O)N(C)C[C@@H]2CCCN2)c1 (stereo partly drawn)	pEC50	> 7.00
Cc1cc(F)cc(N2C=Nc3cc(C)c(-c4cc(O)cc(C#N)c4)cc3C2C(=O)N(C)C[C@@H]2CCCN2)c1 (stereo partly drawn)	pEC50	> 7.00
Cc1cc(Cl)cc(N2C=Nc3cc(C)c(-c4cccc(C#N)c4)cc3C2C(=O)N(C)C[C@@H]2CCCN2)c1 (stereo partly drawn)	pEC50	> 7.00
Cc1cc(Cl)cc(N2C=Nc3cc(C)c(-c4cccc(O)c4)cc3C2C(=O)N(C)C[C@@H]2CC(F)(F)CN2)c1 (stereo partly drawn)	pEC50	> 7.00
Cc1cc(Cl)cc(N2C=Nc3ccc(-c4cc(O)cc(F)c4)cc3C2C(=O)N(C)C[C@@H]2CCCN2)c1 (stereo partly drawn)	pEC50	> 7.00
Cc1cc(Cl)cc(N2C=Nc3ccc(-c4cc(O)ccc4Cl)cc3C2C(=O)N(C)C[C@@H]2CCCN2)c1 (stereo partly drawn)	pEC50	> 7.00
Cc1cc(Cl)cc(N2C=Nc3cc(C)c(-c4cccc(O)c4)cc3C2C(=O)N(C)C[C@@H]2C[C@@H](F)CN2)c1 (stereo partly drawn)	pEC50	> 7.00
Cc1cc(Cl)cc(N2C=Nc3cc(C)c(-c4cc(C#N)cc(C(F)(F)F)c4)cc3C2C(=O)N(C)C[C@@H]2CCCN2)c1 (stereo partly drawn)	pEC50	> 7.00
CC[C@H](N)CN(C)C(=O)C1c2cc(-c3cc(O)ccc3F)c(C)cc2N=CN1c1cc(C)cc(C)c1 (stereo partly drawn)	pEC50	> 7.00
Cc1cc(Cl)cc(N2C=Nc3cc(C)c(-c4cccc(O)c4)cc3C2C(=O)N(C)C[C@@H]2CCCN2)c1 (stereo partly drawn)	pEC50	> 7.00
Cc1cc(Cl)cc(N2C=Nc3cc(C)c(-c4cccnc4)cc3C2C(=O)N(C)C[C@@H]2CCCN2)c1 (stereo partly drawn)	pEC50	6.00 to 7.00
Cc1cc(Cl)cc(N2C=Nc3cc(C)c(-c4cc(C#N)ccc4Cl)cc3C2C(=O)N(C)C[C@@H]2CCCN2)c1 (stereo partly drawn)	pEC50	> 7.00
Cc1cc(Cl)cc(N2C=Nc3cc(C)c(-c4cccc(C#N)c4C)cc3C2C(=O)N(C)C[C@@H]2CCCN2)c1 (stereo partly drawn)	pEC50	> 7.00
Cc1cc(Cl)cc(N2C=Nc3cc(C)c(-c4ccccc4Cl)cc3C2C(=O)N(C)C[C@@H]2CCCN2)c1 (stereo partly drawn)	pEC50	> 7.00
Cc1cc(Cl)cc(N2C=Nc3cc(C)c(-c4cccc(O)c4C#N)cc3C2C(=O)N(C)C[C@@H]2CCCN2)c1 (stereo partly drawn)	pEC50	6.00 to 7.00
Cc1cc(Cl)cc(N2C=Nc3cc(C)c(-c4cccc(S(C)(=O)=O)c4)cc3C2C(=O)N(C)C[C@@H]2CCCN2)c1 (stereo partly drawn)	pEC50	6.00 to 7.00
Cc1cc(Cl)cc(N2C=Nc3cc(C)c(-c4cc(F)ccc4Cl)cc3C2C(=O)N(C)C[C@@H]2CCCN2)c1 (stereo partly drawn)	pEC50	> 7.00
Cc1cc(Cl)cc(N2C=Nc3cc(C)c(-c4cc(C(N)=O)ccc4Cl)cc3C2C(=O)N(C)C[C@@H]2CCCN2)c1 (stereo partly drawn)	pEC50	> 7.00
Cc1cc(Cl)cc(N2C=Nc3cc(C)c(-c4c(C)cccc4F)cc3C2C(=O)N(C)C[C@@H]2CCCN2)c1 (stereo partly drawn)	pEC50	> 7.00
Cc1cc(Cl)cc(N2C=Nc3cc(C)c(-c4cc(F)cc(F)c4)cc3C2C(=O)N(C)C[C@@H]2CCCN2)c1 (stereo partly drawn)	pEC50	> 7.00
CCN(C[C@@H]1CCCN1)C(=O)C1c2cc(-c3cccc(O)c3)c(C)cc2N=CN1c1cc(C)cc(Cl)c1 (stereo partly drawn)	pEC50	> 7.00
CC[C@H](N)CN(C)C(=O)C1c2cc(-c3cccc(O)c3)c(C)cc2N=CN1c1cc(C)cc(Cl)c1 (stereo partly drawn)	pEC50	> 7.00

---

Target: human somatostatin receptor subtype 2 (Homo sapiens, UniProt P30874)
Experiment: cAMP assay (functional assay for SSTR2 agonists)
Conditions: CHO cells expressing human SSTR2; intracellular cAMP with forskolin, HTRF; read-out: SSTR2a EC50

compound	systemName	EC50
Cc1cc(C)cc(N2C=Nc3cc(Cl)c(-c4cccc(O)c4)cc3C2C(=O)NCCN)c1 (stereo not shown) [Compound 1-3]	human somatostatin receptor subtype 2 (Homo sapiens, UniProt P30874)	1000 to 10000 nM
CC1=Nc2ccc(-c3cc(O)ccc3Cl)cc2C(C(=O)NC[C@@H]2CCCN2)N1c1cc(C)cc(Cl)c1 (stereo partly shown) [Compound 1-28]	human somatostatin receptor subtype 2 (Homo sapiens, UniProt P30874)	< 100 nM
Cc1cc(Cl)cc(N2C=Nc3cc(C)c(-c4cccc(C(F)(F)F)c4)cc3C2C(=O)N(C)C[C@@H]2CCCN2)c1 (stereo partly shown) [Compound 1-43]	human somatostatin receptor subtype 2 (Homo sapiens, UniProt P30874)	< 100 nM
Cc1cc(Cl)cc(N2C=Nc3cc(C)c(-c4cc(C(N)=O)ccn4)cc3C2C(=O)N(C)C[C@@H]2CCCN2)c1 (stereo partly shown) [Compound 2-14]	human somatostatin receptor subtype 2 (Homo sapiens, UniProt P30874)	100 to 1000 nM
COc1cc(-c2cc3c(cc2C)N=CN(c2cc(C)cc(Cl)c2)C3C(=O)N(C)C[C@@H]2CCCN2)ccc1C (stereo partly shown) [Compound 2-16]	human somatostatin receptor subtype 2 (Homo sapiens, UniProt P30874)	< 100 nM
Cc1cc(Cl)cc(N2C=Nc3cc(C)c(-c4ccc5[nH]c(=O)[nH]c5c4)cc3C2C(=O)N(C)C[C@@H]2CCCN2)c1 (stereo partly shown) [Compound 2-34]	human somatostatin receptor subtype 2 (Homo sapiens, UniProt P30874)	< 100 nM
CC[C@H](N)CN(C)C(=O)C1c2cc(-c3cccc(O)c3F)c(C)cc2N=CN1c1cc(C)cc(C)c1 (stereo partly shown) [Compound 1-11]	human somatostatin receptor subtype 2 (Homo sapiens, UniProt P30874)	< 100 nM

---

Target: human somatostatin receptor subtype 2 (Homo sapiens, UniProt P30874)
Assay: cAMP assay (functional assay for SSTR2 agonists)
Settings: CHO cells expressing human SSTR2; intracellular cAMP with forskolin, HTRF; read-out: SSTR2a EC50
pEC50: −log10 of the molar value.
This listing pairs molecules with measured pEC50.
measurementKind: pEC50

molecule	systemName	readoutValue
Cc1cc(Cl)cc(N2C=Nc3cc(C)c(-c4cc(O)ccc4C#N)cc3C2C(=O)N(C)C[C@@H]2CCCN2)c1 (stereo partly shown)	human somatostatin receptor subtype 2 (Homo sapiens, UniProt P30874)	> 7.00
Cc1cc(C)cc(N2C=Nc3cc(C)c(-c4cccc(O)c4)cc3C2C(=O)N(C)C[C@@H]2CCCN2)c1 (stereo partly shown)	human somatostatin receptor subtype 2 (Homo sapiens, UniProt P30874)	> 7.00
COc1cc(C#N)cc(-c2cc3c(cc2C)N=CN(c2cc(C)cc(Cl)c2)C3C(=O)N(C)C[C@@H]2CCCN2)c1 (stereo partly shown)	human somatostatin receptor subtype 2 (Homo sapiens, UniProt P30874)	> 7.00
Cc1cc(Cl)cc(N2C=Nc3cc(C)c(-c4cc(F)cc(C#N)c4)cc3C2C(=O)N(C)C[C@@H]2CCCN2)c1 (stereo partly shown)	human somatostatin receptor subtype 2 (Homo sapiens, UniProt P30874)	> 7.00
Cc1cc(Cl)cc(N2C=Nc3cc(C)c(-c4ccncc4Cl)cc3C2C(=O)N(C)C[C@@H]2CCCN2)c1 (stereo partly shown)	human somatostatin receptor subtype 2 (Homo sapiens, UniProt P30874)	6.00 to 7.00
CC1=Nc2ccc(-c3cc(O)ccc3Cl)cc2C(C(=O)N(C)C[C@@H]2CCCN2)N1c1cc(C)cc(Cl)c1 (stereo partly shown)	human somatostatin receptor subtype 2 (Homo sapiens, UniProt P30874)	> 7.00
Cc1cc(Cl)cc(N2C=Nc3cc(C)c(-c4cc(C)oc4C)cc3C2C(=O)N(C)C[C@@H]2CCCN2)c1 (stereo partly shown)	human somatostatin receptor subtype 2 (Homo sapiens, UniProt P30874)	6.00 to 7.00
